protocol.text: from Kabankin, S.; Boldeskul, E.; Trinus, P.; Protsenko, D.; Landau, A. (1982). Physicochemical characteristics, antitumor activity and quantitative structure-activity relations for phosphoric …
measurement.setup: pH 7.4
measure.name: logD

| substance.smiles | measured |
| --- | --- |
| O=C(NP(=O)(N1CC1)N1CC1)c1ccc(I)cc1 | 1.63 |
| O=C(NP(=O)(N1CC1)N1CC1)c1ccc(Cl)cc1 | 0.46 |
| COc1cccc(C(=O)NP(=O)(N2CC2)N2CC2)c1 | 0.04 |
| CCOc1cccc(C(=O)NP(=O)(N2CC2)N2CC2)c1 | 0.42 |
| O=C(NP(=O)(N1CC1)N1CC1)c1ccccc1Br | 0.45 |
| COc1ccc(C(=O)NP(=O)(N2CC2)N2CC2)cc1 | -0.02 |
| O=C(NP(=O)(N1CC1)N1CC1)c1cccc(Br)c1 | 0.88 |
| C=CCc1cccc(C(=O)NP(=O)(N2CC2)N2CC2)c1 | 0.65 |
| C=CCc1ccc(C(=O)NP(=O)(N2CC2)N2CC2)cc1 | 0.69 |
| O=C(NP(=O)(N1CC1)N1CC1)c1cc(I)cc(I)c1I | 0.81 |
| O=C(NP(=O)(N1CC1)N1CC1)c1ccccc1 | -0.15 |
| O=C(NP(=O)(N1CC1)N1CC1)c1cc(I)cc(I)c1 | 2.52 |
| O=C(NP(=O)(N1CC1)N1CC1)c1cccc(I)c1 | 1.37 |
| O=C(NP(=O)(N1CC1)N1CC1)c1cc(Br)cc(Br)c1 | 1.15 |
| O=C(NP(=O)(N1CC1)N1CC1)c1ccc(F)cc1 | 0.13 |

The measurements presented in this section are drawn from the SangsterLogP compilation.
